Reference for the values: paper PMC2572732

target: isolated Fes SH2 domain, E469K/E472K (mutant EE/KK) (human, UniProt P07332-1 460-549, E469K | E472K); assay: FP
Sequence (P07332 460-549 E469K/E472K): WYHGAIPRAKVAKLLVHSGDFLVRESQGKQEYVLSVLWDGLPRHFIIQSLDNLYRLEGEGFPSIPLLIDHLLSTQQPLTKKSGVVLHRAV
Non-standard residues stand in square brackets, D forms with d. No end group written: not given here. pY = N[C@@H](Cc1ccc(OP(=O)(O)O)cc1)C(=O)O
measure: Kd

-- ask Report Kd for V[pY]EPVSY [pTyr-containing peptide from ezrin (VpYEPVSY)]
-- reply ~400 nM
